target_system: T1, RSV postfusion F (postF), subtype B (respiratory syncytial virus subtype B)
T1 construct: also called Postfusion subtype B
T1 sequence (P13843 26-109, chain 1 of 2): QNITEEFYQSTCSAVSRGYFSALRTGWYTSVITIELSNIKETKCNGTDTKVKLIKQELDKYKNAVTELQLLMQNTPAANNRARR
T1 sequence (P13843 147-513, chain 2 of 2): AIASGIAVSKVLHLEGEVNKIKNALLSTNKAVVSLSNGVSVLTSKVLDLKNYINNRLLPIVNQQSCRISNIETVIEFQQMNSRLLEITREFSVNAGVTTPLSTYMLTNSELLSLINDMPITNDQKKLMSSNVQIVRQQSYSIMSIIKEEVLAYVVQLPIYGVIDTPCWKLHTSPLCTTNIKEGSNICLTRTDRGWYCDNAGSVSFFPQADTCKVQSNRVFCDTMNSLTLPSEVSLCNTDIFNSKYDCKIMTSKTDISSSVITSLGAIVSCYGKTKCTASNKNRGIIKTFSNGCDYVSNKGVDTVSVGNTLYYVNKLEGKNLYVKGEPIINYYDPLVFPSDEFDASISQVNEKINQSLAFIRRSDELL
method_notes: BLI, IgG
measured_parameter: Kd (nM)
One number for each entry, in nM.

# example entries with known answers
| binder | Kd / nM |
| --- | --- |
| ADI-19479 (antibody, V domains shown, full-length IgG) VH: QVQLVQSGAEVKKPGSSVKVSCKASGGTFSSNAINWVRQAPGQGLEWMGGIIPIFGTANYAQKFQGRVTITTDESTSTAYMELSSLRSEDTAVYYCATTFYYGSGADYWGQGTLVTVSS VL: DIQMTQSPLSLPVTLGQPASISCRSSQSLVYSDGNMYLSWFQQRPGQSPRRLIYKVSNRDSGVPDRFSGSGSGTDFTLKISRVEAEDVGVYYCMQGTHWWTFGQGTKVEIK | 2.69 |
| ADI-14338 (antibody, V domains shown, full-length IgG; also called Ab 6) VH: EVQLVESGGGVVQPGRPLRLSCAASGFTFSTYDLYWVRQAPGKGLDWVAIISPDGNKKYYADSVKGRFTISRDNSKNTLFLHMNSLRAEDTAVYYCARDYGNYFGSGSYYRYFDLWGRGTLVTVSS VL: DIQLTQSPSSLSASVGDRVTITCRASQSISSHLNWYQQKPGKAPKLLIYASSSLQSGVPSRFSGSGSGTDFTLTISGLQPEDFATYYCQQSYSTPFTFGPGTKVEIK | 3.14 |
| ADI-14354 (antibody, V domains shown, full-length IgG; also called Ab 22) VH: QVQLVQSGAEVKKPGSSAKVSCKASGGTFSSYTISWVRQAPGQGLEWMGRIIPFLGIANYAQKFQGRVTFTADKSTSTVYMDLSRLRSEDTALYYCAREPMYYGGDSYAFDVWGQGTTVTVSS VL: QSVLTQPASMSGSPGHSITISCTGTSSDVGAYNYVSWYQQHPGKAPKLMIYDVSNRPSGVSSRFSGSKSGNTASLTISGLQPEDEADYYCSSFTTSSTRVFGTGTKLTVL | 6.63 |

Suppose we examine the binder ADI-14368 (antibody, V domains shown, full-length IgG; also called Ab 36) VH: EVQLVESGGGLVKPGGSLRLSCAASGFTFINAWMSWVRQAPGKGLEWVGRIKSKADGGTTDDAAPVKGRFTISRDDSKNTLYLQMNSLKIEDTAVYYCATDVLPLYNWNLGWNFDLWGRGTLVTVSS VL: SYVLTQPPSVSVAPGKTARITCGGNNIADKSVHWYQQKPGQAPVLVMYYDTDRPSGIPERFSGFNSGNTATLTISRVEAGDEADYYCQVWDSSSDHVVFGGGTKVTVL ; what Kd value has been reported?
17.7
